# Tested on: HepG2
# testName: alamarBlue cell viability (survival rate), HepG2
# Type: cell-based
# runConditions: Homo sapiens; HepG2 (liver cancer), compound 10 µM, 48 hours; read-out: Cancer cell line survival rate (%)
Hi! Could you tag entries with viability at 10 µM below 30% as Criterion met, and those at or above as Criterion not met? Much appreciated.

>  <compound>
C=CCc1cc(OC)c(O[C@H](C)[C@H](Oc2cc(CCCCCCCCC(=O)c3c(O)cccc3O)ccc2O)c2ccc(O)c(OC)c2)c(OC)c1

>  <classLabel>
Criterion met

$$$$
>  <compound>
COc1cc(CC(C)C(C)C(c2ccc(O)c(OC)c2)c2ccc(O)c(C(=O)CCCCCCCCc3ccc(O)c(O)c3)c2O)ccc1O (stereo not drawn)

>  <classLabel>
Criterion met

$$$$
>  <compound>
COc1cc([C@H]2Oc3c(OC)cc(/C=C/Cc4c(CCCCCCCCC(=O)c5c(O)cccc5O)ccc(O)c4O)cc3[C@@H]2C)ccc1O

>  <classLabel>
Criterion not met

$$$$
>  <compound>
C=CCc1cc(OC)c(O[C@H](C)[C@@H](c2ccc(O)c(OC)c2)c2ccc(O)c(C(=O)CCCCCCCCc3ccc(O)c(O)c3)c2O)c(OC)c1

>  <classLabel>
Criterion met

$$$$
>  <compound>
COc1cc([C@H]2Oc3c(OC)cc(/C=C/Cc4ccc(O)c(C(=O)CCCCCCCCc5ccc(O)c(O)c5)c4O)cc3[C@@H]2C)ccc1O

>  <classLabel>
Criterion not met

$$$$

Turning now to a further compound:
Quick check: viability at 10 µM of C=CCc1cc(OC)c(OC(C)C(Oc2cccc(O)c2C(=O)CCCCCCCCc2ccc(O)cc2)c2ccc(O)c(OC)c2)c(OC)c1 (stereo not drawn) under 30%?
Criterion met
